- system: T1, human serum albumin (human, UniProt P02768 25-609)
- T1 construct: Immobilised on SPR chips; also added in solution in the FcRn occupancy assays; also called HSA; humanSA
- test description: SPR Biacore 3000, HSA on chip, pH 5.5
measure name: R0 pH 5.5

>>> recorded_measurement("2H11-v3 fused at the C-terminus of Fc-ABDEG (two-armed) (Fc fusion, not shown: Fc-ABDEG domain) GGGGSGGGGSGGGGSGGGGSELQVVESGGGLVQAGGSLRLSCAASGRTFRSNTMGWFRQAPGKEREFVAAITWSGGTTYYADSVKGRFAISGDNAKNTVYLQMNSLKPEDTAVYYCAAEGAKWEPWNGIYHPADFGSWGQGTQVTVSS")
"164 RU"
>>> recorded_measurement("TA-Fc-ABDEG-2H11 (Fc fusion, also called 2H11 parental (two-armed Fc-ABDEG-20GS-Cterm fusion); not shown: Fc-ABDEG domain) GGGGSGGGGSGGGGSGGGGSELQVVESGGGLVQAGGSLRLSCAASGRTFRSNTMGWFRQAPGKEREFVAAITWSGGTTYYADSVKGRFAISGDNAKNTVYLQMNSLKPEDTAVYYCAAEGPKWEPWNGIYHPADFGSWGQGTQVTVSS")
"351 RU"
>>> recorded_measurement("2H11-v15 fused at the C-terminus of Fc-ABDEG (two-armed) (Fc fusion, not shown: Fc-ABDEG domain) GGGGSGGGGSGGGGSGGGGSELQVVESGGGLVQAGGSLRLSCAASGRTFRSNTMGWFRQAPGKEREFVAAITWSGGTTYYADSVKGRFAISGDNAKNTVYLQMNSLKPEDTAVYYCAAEGPKWEPWNGIYHPAAFGSWGQGTQVTVSS")
"235 RU"
>>> recorded_measurement("2H11-v12 fused at the C-terminus of Fc-ABDEG (two-armed) (Fc fusion, not shown: Fc-ABDEG domain) GGGGSGGGGSGGGGSGGGGSELQVVESGGGLVQAGGSLRLSCAASGRTFRSNTMGWFRQAPGKEREFVAAITWSGGTTYYADSVKGRFAISGDNAKNTVYLQMNSLKPEDTAVYYCAAEGPKWEPWNGIAHPADFGSWGQGTQVTVSS")
"93.9 RU"
>>> recorded_measurement("2H11-v16 fused at the C-terminus of Fc-ABDEG (two-armed) (Fc fusion, not shown: Fc-ABDEG domain) GGGGSGGGGSGGGGSGGGGSELQVVESGGGLVQAGGSLRLSCAASGRTFRSNTMGWFRQAPGKEREFVAAITWSGGTTYYADSVKGRFAISGDNAKNTVYLQMNSLKPEDTAVYYCAAEGPKWEPWNGIYHPADAGSWGQGTQVTVSS")
"8.91 RU"
